SYSTEM UNDER TEST: human PPARδ-LBD (Homo sapiens, UniProt Q03181)
Construct: PPARδ-LBD (AAs 170–441); made in house
Sequence (Q03181 170-441): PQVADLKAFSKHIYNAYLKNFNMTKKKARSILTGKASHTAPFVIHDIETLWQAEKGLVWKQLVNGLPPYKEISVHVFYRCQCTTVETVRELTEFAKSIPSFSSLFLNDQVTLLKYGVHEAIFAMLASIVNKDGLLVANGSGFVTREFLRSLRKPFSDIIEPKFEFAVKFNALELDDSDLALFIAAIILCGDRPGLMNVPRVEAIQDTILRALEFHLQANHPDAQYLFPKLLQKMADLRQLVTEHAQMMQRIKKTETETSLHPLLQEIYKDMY
ASSAY: TR-FRET coactivator recruitment assay, PPARδ-LBD
Assay type: biochemical
ASSAY CONTEXT: read-out: PPARδ CBP % of GW501516 max response
MEASUREMENT TYPE: Emax (%)

COMPOUND	SYSTEM UNDER TEST	EXPERIMENTAL VALUE
CC[C@@H](Oc1cccc(CN(CCCOc2ccc(OC)cc2)c2nc3ccccc3o2)c1)C(=O)O [Pemafibrate, pemafibrate]	human PPARδ-LBD (Homo sapiens, UniProt Q03181)	74.6

a = CC(C)(Oc1ccc(C(=O)c2ccc(Cl)cc2)cc1)C(=O)O [Fenofibric acid, fenofibric acid]
b = CCO[C@H](COc1ccc(C(F)(F)F)cc1)CSc1ccc(OCC(=O)O)c(C)c1 [Seladelpar, seladelpar]
Please choose the item with the lower Emax value from this pair: a and b Your answer should be the label of the entry you select.
a
(a: 0.45%, b: 120%)

a = CCO[C@@H](Cc1ccc(OCCn2c(C)ccc2-c2ccc(SC)cc2)cc1)C(=O)O [Saroglitazar, saroglitazar]
b = CSc1ccc(C(=O)/C=C/c2cc(C)c(OC(C)(C)C(=O)O)c(C)c2)cc1 [Elafibranor, elafibranor]
Which has the higher Emax, a or b ? Your answer should be the label of the entry you select.
b

---

SYSTEM UNDER TEST: human PPARγ-LBD (Homo sapiens)
Construct: PPARγ-LBD (AAs 203–477 in isoform 1); made in house
ASSAY: TR-FRET coactivator recruitment assay, PPARγ-LBD
Type: biochemical
ASSAY CONTEXT: read-out: PPARγ PGC1α % of GW1929 max response
MEASUREMENT TYPE: Emax (%)

COMPOUND	Emax [%]
CC[C@@H](Oc1cccc(CN(CCCOc2ccc(OC)cc2)c2nc3ccccc3o2)c1)C(=O)O [Pemafibrate, pemafibrate]	50.8

a = CC(C)(Oc1ccc(C(=O)c2ccc(Cl)cc2)cc1)C(=O)O [Fenofibric acid, fenofibric acid]
b = CCO[C@H](COc1ccc(C(F)(F)F)cc1)CSc1ccc(OCC(=O)O)c(C)c1 [Seladelpar, seladelpar]
c = CSc1ccc(C(=O)/C=C/c2cc(C)c(OC(C)(C)C(=O)O)c(C)c2)cc1 [Elafibranor, elafibranor]
Your job: order these 3 records by Emax, ascending. Ranked list of labels, please, in the requested order.
c, b, a

---

SYSTEM UNDER TEST: human PPARγ-LBD (Homo sapiens, UniProt P37231)
Construct: PPARγ-LBD (AAs 203–477 in isoform 1); made in house
Sequence (P37231 231-505): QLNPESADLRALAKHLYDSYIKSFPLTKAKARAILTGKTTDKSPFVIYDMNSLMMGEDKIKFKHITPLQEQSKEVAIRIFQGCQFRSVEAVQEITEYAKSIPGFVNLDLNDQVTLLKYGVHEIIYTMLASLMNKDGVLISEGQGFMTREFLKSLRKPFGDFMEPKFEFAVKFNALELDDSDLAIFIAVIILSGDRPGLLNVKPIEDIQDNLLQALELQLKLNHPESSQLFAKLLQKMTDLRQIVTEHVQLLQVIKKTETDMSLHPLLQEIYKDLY
ASSAY: TR-FRET coactivator recruitment assay, PPARγ-LBD
Type: biochemical
ASSAY CONTEXT: PPARγ SRC1 EC50
MEASUREMENT TYPE: pEC50
Quick note: pEC50 values are minus log10 of concentrations in mol/L.

For record CC(C)(Oc1ccc(CCNC(=O)c2ccc(Cl)cc2)cc1)C(=O)O [Bezafibrate, bezafibrate] the listed pEC50 is 3.97

---

SYSTEM UNDER TEST: human PPARα-LBD (Homo sapiens)
Construct: Human PPARα-LBD [amino acids (AAs) 200–468]; made in house
Sequence (Q07869 200-468): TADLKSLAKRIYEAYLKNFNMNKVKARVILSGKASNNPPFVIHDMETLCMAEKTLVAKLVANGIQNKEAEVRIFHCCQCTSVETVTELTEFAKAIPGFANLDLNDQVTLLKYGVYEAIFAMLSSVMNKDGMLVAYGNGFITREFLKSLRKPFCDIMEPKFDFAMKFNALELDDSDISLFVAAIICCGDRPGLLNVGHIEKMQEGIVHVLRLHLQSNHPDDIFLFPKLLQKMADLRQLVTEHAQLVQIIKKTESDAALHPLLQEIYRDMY
ASSAY: TR-FRET coactivator recruitment assay, PPARα-LBD
Assay type: biochemical
ASSAY CONTEXT: PGC1α peptide recruitment; Buffer A; read-out: PPARα PGC1α EC50
MEASUREMENT TYPE: EC50 (µM)

Use these answered entries as a reference point.
MOLECULE SMILES	EC50 [µM]
CC(C)(Oc1ccc(C(=O)c2ccc(Cl)cc2)cc1)C(=O)O	8.02
CCO[C@@H](Cc1ccc(OCCn2c(C)ccc2-c2ccc(SC)cc2)cc1)C(=O)O	0.761

I = CCO[C@H](COc1ccc(C(F)(F)F)cc1)CSc1ccc(OCC(=O)O)c(C)c1
II = O=C(O)CCCc1cc2cc(Cl)ccc2n1S(=O)(=O)c1ccc2ncsc2c1
Please choose the item with the lower EC50 value from this pair: I and II Your answer should be the label of the entry you select.
I

---

SYSTEM UNDER TEST: human PPARγ-LBD (Homo sapiens)
Construct: PPARγ-LBD (AAs 203–477 in isoform 1); made in house
ASSAY: TR-FRET coactivator recruitment assay, PPARγ-LBD
Format: biochemical
ASSAY CONTEXT: read-out: PPARγ PGC1α % of GW1929 max response
MEASUREMENT TYPE: Emax (%)

COMPOUND	RESULT UNIT	Emax
O=C(O)CCCc1cc2cc(Cl)ccc2n1S(=O)(=O)c1ccc2ncsc2c1	%	70.5
CC(C)(Oc1ccc(CCNC(=O)c2ccc(Cl)cc2)cc1)C(=O)O [Bezafibrate, bezafibrate]	%	68.6
CCO[C@@H](Cc1ccc(OCCn2c(C)ccc2-c2ccc(SC)cc2)cc1)C(=O)O	%	50.1

---

SYSTEM UNDER TEST: human PPARα-LBD (Homo sapiens)
Construct: Human PPARα-LBD [amino acids (AAs) 200–468]; made in house
ASSAY: TR-FRET coactivator recruitment assay, PPARα-LBD
Format: biochemical
ASSAY CONTEXT: read-out: PPARα SRC1 % of GW7647 max response
MEASUREMENT TYPE: Emax (%)

COMPOUND	SYSTEM UNDER TEST	RESULT UNIT	Emax
CSc1ccc(C(=O)/C=C/c2cc(C)c(OC(C)(C)C(=O)O)c(C)c2)cc1	human PPARα-LBD (Homo sapiens)	%	41.6
CCc1ccc(CCOc2ccc(CC3SC(=O)NC3=O)cc2)nc1 (stereo not shown)	human PPARα-LBD (Homo sapiens)	%	8.37

I = O=C(O)CCCc1cc2cc(Cl)ccc2n1S(=O)(=O)c1ccc2ncsc2c1
II = CC(C)(Oc1ccc(C(=O)c2ccc(Cl)cc2)cc1)C(=O)O
Please choose the item with the lower Emax value from this pair: I and II Your answer should be the label of the entry you select.
I

---

SYSTEM UNDER TEST: human PPARγ-LBD (Homo sapiens, UniProt P37231)
Construct: PPARγ-LBD (AAs 203–477 in isoform 1); made in house
ASSAY: TR-FRET coactivator recruitment assay, PPARγ-LBD
Assay type: biochemical
ASSAY CONTEXT: read-out: PPARγ CBP % of GW1929 max response
MEASUREMENT TYPE: Emax (%)

COMPOUND	SYSTEM UNDER TEST	MEASUREMENT TYPE	EXPERIMENTAL VALUE
CC(C)(Oc1ccc(C(=O)c2ccc(Cl)cc2)cc1)C(=O)O [Fenofibric acid, fenofibric acid]	human PPARγ-LBD (Homo sapiens, UniProt P37231)	Emax	73
CCO[C@H](COc1ccc(C(F)(F)F)cc1)CSc1ccc(OCC(=O)O)c(C)c1 [Seladelpar, seladelpar]	human PPARγ-LBD (Homo sapiens, UniProt P37231)	Emax	45.9

a = CCO[C@@H](Cc1ccc(OCCn2c(C)ccc2-c2ccc(SC)cc2)cc1)C(=O)O [Saroglitazar, saroglitazar]
b = CSc1ccc(C(=O)/C=C/c2cc(C)c(OC(C)(C)C(=O)O)c(C)c2)cc1 [Elafibranor, elafibranor]
Please choose the item with the lower Emax value from this pair: a and b Your answer should be the label of the entry you select.
b

---

SYSTEM UNDER TEST: human PPARδ-LBD (Homo sapiens, UniProt Q03181)
Construct: PPARδ-LBD (AAs 170–441); made in house
ASSAY: TR-FRET coactivator recruitment assay, PPARδ-LBD
Type: biochemical
ASSAY CONTEXT: range over PGC1α, CBP, SRC1, TRAP220; Buffer A; read-out: EC50 values on the four coactivators, PPARδ
pEC50: −log10 of the molar value.
MEASUREMENT TYPE: pEC50

For record `CCO[C@H](COc1ccc(C(F)(F)F)cc1)CSc1ccc(OCC(=O)O)c(C)c1` the listed pEC50 is 7.13 to 7.50

Where do the numbers come from? From paper PMC10967972.
